Molecular target: Human plasma kallikrein (Homo sapiens)
Construct: yields a heavy chain (371 amino acids) and a light chain (248 amino acids)
Sequence (P03952 391-638 limits assumed): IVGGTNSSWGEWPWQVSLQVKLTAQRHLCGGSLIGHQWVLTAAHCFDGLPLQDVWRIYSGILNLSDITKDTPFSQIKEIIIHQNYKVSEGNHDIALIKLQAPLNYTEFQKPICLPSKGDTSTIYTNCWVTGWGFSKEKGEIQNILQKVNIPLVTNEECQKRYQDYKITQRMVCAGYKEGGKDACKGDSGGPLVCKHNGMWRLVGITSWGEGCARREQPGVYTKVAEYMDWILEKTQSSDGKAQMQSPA
Sequence (P03952 20-390 partner limits assumed): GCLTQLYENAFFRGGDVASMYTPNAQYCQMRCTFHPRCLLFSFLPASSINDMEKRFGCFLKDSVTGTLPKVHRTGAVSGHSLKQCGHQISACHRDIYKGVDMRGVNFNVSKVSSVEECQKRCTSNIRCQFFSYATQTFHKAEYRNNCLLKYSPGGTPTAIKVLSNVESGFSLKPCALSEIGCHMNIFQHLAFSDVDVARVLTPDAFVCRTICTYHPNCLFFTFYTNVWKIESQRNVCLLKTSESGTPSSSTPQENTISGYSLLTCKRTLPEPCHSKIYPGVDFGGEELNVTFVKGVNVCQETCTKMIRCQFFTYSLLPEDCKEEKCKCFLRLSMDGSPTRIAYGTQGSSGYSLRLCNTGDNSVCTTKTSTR
Experiment: Plasma Kallikrein Assay
Settings: purified Human plasma kallikrein 0.5 nM, substrate Acetyl-K-P-R-AFC; read-out: PKal IC50
Recorded IC50 by entry
measure: IC50

                                   compound  measure  measured_result
0  O=C1Nc2ccc(Cl)c(F)c2[C@@]2(CCCN(C(=O)c3cnc(C(c4ccc(F)cc4)C(F)(F)F)[nH]3)C2)O1 (single isomer, unassigned) [Example 82]     IC50          42.5 nM
1  O=C1Nc2ccc(Cl)c(F)c2[C@@]2(CCCN(C(=O)c3cnn(Cc4ccc5c(c4)COC5)c3)C2)O1     IC50          14.7 nM
2  O=C1Nc2ccc(Cl)c(F)c2[C@@]2(CCCN(C(=O)c3nc(C(O)c4ccc(F)cc4)n[nH]3)C2)O1 (stereo partly drawn)     IC50          39.9 nM
3  CCC(c1ccc2ncncc2c1)n1cc(C(=O)N2CCC[C@@]3(C2)OC(=O)Nc2ccc(Cl)c(F)c23)cn1 (single isomer, unassigned) [Example 42]     IC50          14.1 nM
4  O=C1Nc2ccc(Cl)c(F)c2[C@@]2(CCCN(C(=O)c3nnc(Cc4cc(Cl)c5nc[nH]c5c4)[nH]3)C2)O1     IC50          17.5 nM
5  CC[C@H](c1ccc(F)cc1)c1ncc(C(=O)N2CCC[C@@]3(C2)OC(=O)Nc2ccc(Cl)c(F)c23)[nH]1 (single isomer, unassigned)     IC50           1.9 nM

* * *

Target: Human plasma kallikrein (Homo sapiens)
Construct: yields a heavy chain (371 amino acids) and a light chain (248 amino acids)
Experiment: Plasma Kallikrein Assay
Settings: purified Human plasma kallikrein 0.5 nM, substrate Acetyl-K-P-R-AFC; read-out: PKal IC50
pIC50: −log10 of the molar value.
measure: pIC50

                                    compound  measured_result
 0  CO[C@H](C)[C@H](c1ccccc1)n1cc(C(=O)N2CCC[C@@]3(C2)OC(=O)Nc2ccc(Cl)c(F)c23)cn1             7.42
 1  CCC(c1ccc2c(c1)COC2)c1nnc(C(=O)N2CCC[C@@]3(C2)OC(=O)Nc2ccc(Cl)c(F)c23)[nH]1 (single isomer, unassigned) [Example 111]             8.42
 2  CC(c1ccccc1)n1cc(C(=O)N2CCC[C@@]3(C2)OC(=O)Nc2ccc(Cl)c(F)c23)cn1 (single isomer, unassigned) [Example 24]             7.42
 3  CCC(c1cc(C)c2nc[nH]c2c1)n1cc(C(=O)N2CCC[C@@]3(C2)OC(=O)Nc2ccc(Cl)c(F)c23)cn1 (single isomer, unassigned) [Example 45]             9.10
 4  CCC(c1ccc2c(c1)OCO2)n1cc(C(=O)N2CCC[C@@]3(C2)OC(=O)Nc2ccc(Cl)c(F)c23)cn1 (single isomer, unassigned) [Example 32]             8.34
 5  O=C1Nc2ccc(Cl)c(F)c2[C@@]2(CCCN(C(=O)c3cnn(Cc4ccc5c(c4)OCCO5)c3)C2)O1             7.53
 6  CC(c1ccccc1)n1cc(C(=O)N2CCC[C@@]3(C2)OC(=O)Nc2ccc(Cl)c(F)c23)cn1 (single isomer, unassigned) [Example 23]             7.34
 7  Cc1ccc(Cc2nnc(C(=O)N3CCC[C@@]4(C3)OC(=O)Nc3ccc(Cl)c(F)c34)[nH]2)cc1C             7.48
 8  O=C1Nc2ccc(Cl)c(F)c2[C@@]2(CC(C3CC3)CN(C(=O)c3cnn(Cc4ccccc4)c3)C2)O1 (stereo partly drawn)             8.10
 9  CCC(c1ccnc(C(F)(F)F)c1)n1cc(C(=O)N2CCC[C@@]3(C2)OC(=O)Nc2ccc(Cl)c(F)c23)cn1 (single isomer, unassigned) [Example 37]             8.59
10  CCC(c1ccc(F)cc1)c1c[nH]c(C(=O)N2CCC[C@@]3(C2)OC(=O)Nc2ccc(Cl)c(F)c23)n1 (single isomer, unassigned) [Example 71]             8.26
11  CCC(c1ccc(F)cc1)c1c[nH]c(C(=O)N2CC[C@@]3(C2)OC(=O)Nc2ccc(Cl)c(F)c23)n1 (single isomer, unassigned)             7.49
